B1: Chromodomain-helicase-DNA-binding protein 4, residues 444 to 496; numbered along this chain, Q14839 (parent)
chain: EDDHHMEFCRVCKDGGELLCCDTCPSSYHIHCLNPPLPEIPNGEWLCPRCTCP

variants of: B1; assay: abundance fitness (aPCA) (normalised: wild type 0, dead -1); higher = more abundant; growth selection in yeast, the domain comes from the species named; conditions: Homo sapiens
I'd appreciate it if you could supply abundance fitness values for the items below.
Numbers only.

Take a look at these entries with their results.
[
  {
    "variant.label": "L33E",
    "abundance fitness": -0.685
  },
  {
    "variant.label": "Y28L",
    "abundance fitness": -0.712
  },
  {
    "variant.label": "C20P",
    "abundance fitness": 0.096
  },
  {
    "variant.label": "C52L",
    "abundance fitness": 0
  },
  {
    "variant.label": "C47E",
    "abundance fitness": -0.606
  }
]

# per-item lookup of abundance fitness; items listed below
1. P41G
2. W45P
3. E44H
4. D2G
5. G16Q

1: -0.133; 2: -0.503; 3: -0.057; 4: 0.26; 5: -0.559

# per-item lookup of abundance fitness; items listed below
1. W45A
2. E7K

-0.517
-0.492
